B1: VDR (parent)
chain: LIKFQVGLKKLNLHEEEHVLLMAI

Variants of: B1
Assay: protein stability index of a GFP-peptide fusion (GPS, HEK-293T) (PSI 1-6); higher = more stable;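 note: lentivirally expressed fusions sorted by FACS into six bins by GFP to DsRed ratio, PSI derived from sequencing read proportions per bin multiplied by bin number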
Details: c terminus: a fixed tail appended
observation type: protein stability index
# output: bare number, no unit

What the record says about LIKFQVGLKKLNLHEYEHVLLMAI : protein stability index is 1.43

// field: protein stability index; key: LIKFQVGLKCLNLHEEEHVLLMAI ; value = 4.27

In plain terms, LIKFKVGLKKLNLHEEEHVLLMAI has a documented protein stability index of 2.89

Measured protein stability index, LIKFQVGLVKLNLHEEEHVLLMAI : 3.6

Notebook: LIKFQVGLDKLNLHEEEHVLLMAI , protein stability index read as 2.79

Please fill in: protein stability index reported for LIKFQVGLKMLNLHEEEHVLLMAI = 2.47

The reported value for LIKFQVGLKKLNLHEEEHVLLDAI in terms of protein stability index is 1.17

Lab note: measured protein stability index of QIKFQVGLKKLNLHEEEHVLLMAI was 2.25

// LIKFQLGLKKLNLHEEEHVLLMAI : protein stability index value = 2.91

LIKFQVGLKKLNLHEEENVLLMAI yielded protein stability index of 3.21

Input LIKFQVTLKKLNLHEEEHVLLMAI . Output protein stability index: 2.82

Measured protein stability index, LIKFQVGLKKLNEHEEEHVLLMAI : 1.4

protein stability index reported for this variant LIKFQVGLKKLNLHEEEHVALMAI : 2.05

# protein stability index (variant: LIKFQVGLNKLNLHEEEHVLLMAI ) is 1.61

Reported protein stability index for LIKFQVGLKKLNLHEEPHVLLMAI was 2.91

protein stability index recorded for this variant, LIKFQVGLKKLNLHEEEHNLLMAI , is 1.59

Data provenance: the supplement of paper PMC10567573
